Recorded values, source patent US9993564B2.

Readings of Frequency (%) for the listed substances
- ASSAY: in vivo phage display selection (4 rounds) with CSF sampling, sequencing of CSF recovered phage clones
- Parameters: species or system rat
- DETAILS: frequency of each peptide related to the 924 total sequencing runs; CSF, after 4 rounds of in vivo selection in rats
Give the value in % but do not write % after it.

The cases that follow already have their Frequency (%) on record.
SUBSTANCE	Frequency (%)
11 (RSTASTSYPFFF; Brain targeting peptide) [compound 11]	2.2
4 (KVAWRVFSLFWK; Brain targeting peptide) [compound 4]	6.1
17 (RRPAPLIMFRMI; Brain targeting peptide) [compound 17]	1.0

Name the reported Frequency (%) value associated with the substance 27 (STMRYVGVTCL; Brain targeting peptide) [compound 27] 0.4

Another substance to check: 15 (YSMVFVGIKL; Brain targeting peptide) [compound 15] 1.2

Field entry: 10 (YNQSLLQGYRYW; Brain targeting peptide) [compound 10] 2.3

----------
- ASSAY: in vivo phage display selection (4 rounds) with CSF sampling, sequencing of CSF recovered phage clones
- Design: species or system rat
- DETAILS: CSF recovered phage clones after 4 rounds of in vivo selection in rats; 924 sequencing in total
Binary classification by Reads, with 9 as an inclusive lower bound for y; all other cases are n.

SUBSTANCE	CATEGORY LABEL
12 (ISNRSHKGLMVG; Brain targeting peptide) [compound 12]	y
19 (SRYSIGGNNGVT; Brain targeting peptide) [compound 19]	n
26 (GWIPYDGGNRAR; Brain targeting peptide) [compound 26]	n
8 (RLSSVDSDLSGC; Brain targeting peptide) [compound 8]	y
7 (MRWFFSHASQGR; Brain targeting peptide) [compound 7]	y

Does Reads meet or surpass 9 for 1 (LYVLHSRGLWGFKL; Brain targeting peptide) [compound 1] ? y

Now this one: 29 (LRPRGAFQRRDFKL; Brain targeting peptide) [compound 29] n

What do you get for 32 (VRDWAYVYSTVL; Brain targeting peptide) [compound 32] ? n

11 (RSTASTSYPFFF; Brain targeting peptide) [compound 11] , same question. y

Thanks! And 22 (NSHAMSC; Brain targeting peptide) [compound 22] ? n

----------
- ASSAY: in vivo phage display selection (4 rounds) with CSF sampling, sequencing of CSF recovered phage clones
- Set-up: species or system rat
- DETAILS: frequency of each peptide related to the 924 total sequencing runs; CSF, after 4 rounds of in vivo selection in rats
READOUT TYPE: Frequency (%)

SUBSTANCE	RECORDED MEASUREMENT
22 (NSHAMSC; Brain targeting peptide) [compound 22]	0.6%
19 (SRYSIGGNNGVT; Brain targeting peptide) [compound 19]	0.9%
36 (LWVSVPRARIIQ; Brain targeting peptide) [compound 36]	0.2%
25 (LPGGSPGHILVC; Brain targeting peptide) [compound 25]	0.4%
20 (SGSGIGLDRWRV; Brain targeting peptide) [compound 20]	0.7%

Suppose we examine the substance 26 (GWIPYDGGNRAR; Brain targeting peptide) [compound 26] ; what Frequency (%) value has been reported? 0.4%

Next entry: 8 (RLSSVDSDLSGC; Brain targeting peptide) [compound 8] 3.0%

And 23 (STVVCFKGVPTG; Brain targeting peptide) [compound 23] ? 0.5%

Quick one: 32 (VRDWAYVYSTVL; Brain targeting peptide) [compound 32] 0.2%
